Biological target: Ubiquitin carboxyl-terminal hydrolase 2 (Homo sapiens)
Test: Ub-rhodamine 110 based assay for inhibitors Ubiquitin-specific Protease USP2a; further: nearly all actives have a fitted effect of over 50% in size; further: potency means the concentration at half of the fitted maximal effect
Conditions: USP2a Ub-rhodamine110 cleavage, fluorescence; series mostly up to 38.3 µM
Records with an inconclusive call do not appear. The source made the active and inactive calls. The call rests on the fitted dose curve; in most records, active means well fitted inhibition curve with a large enough effect; inconclusive means small, poorly fitted or top-dose-only effect, or effect the other way; inactive means flat fitted curve, though single readings scatter.
OUTCOME MEASURE: Potency

>>> measured_result("CC1=C(C(=O)OC(C)C)C(C)C(C(=O)OC(C)C)=C(C)N1")
"inactive"
>>> measured_result("COc1cccc(-c2csc3nnc(SCC(=O)NCc4cccs4)n23)c1")
"inactive"
>>> measured_result("Cc1ccc2nc(NCCCNC(=O)c3cnccn3)c(C#N)cc2c1")
"inactive"
>>> measured_result("Cc1cc(-c2csc(NC(=O)c3ccc(=O)[nH]c3)n2)c(C)n1Cc1ccccc1")
"12.6 µM (active)"
>>> measured_result("Cc1ccc(C(=O)Nc2nnc(CC(=O)N/N=C/c3ccc(O)c(O)c3)s2)cc1")
"4.47 µM (active)"
>>> measured_result("CCOc1ccc(C=NNc2ccc(S(=O)(=O)Nc3ccccc3C(=O)O)cc2[N+](=O)[O-])cc1")
"2.82 µM (active)"
>>> measured_result("CCCCNc1nc2ccccc2nc1NS(=O)(=O)c1cccs1")
"inactive"
>>> measured_result("CN1CCN(CCC(=O)N/N=C/c2cc([N+](=O)[O-])ccc2O)CC1")
"inactive"
>>> measured_result("CC(C)n1nc(C(=O)Nc2ccccc2N2CCOCC2)c2ccccc2c1=O")
"inactive"
>>> measured_result("COc1ccccc1C1NC(c2ccccc2OC)C(C)C(=O)C1C (stereo not given)")
"inactive"
